- RUN DESCRIPTION: BSK_LPS_PGE2: BioMAP Diversity Plus: LPS Assay for Prostaglandin E2 (PGE2) Biomarker Activity (AID 2283082)
- TEST PARAMETERS: primary human HUVEC with PBMC; actives raise or lower the signal
Active and inactive are the calls of the source. The calls were made as follows: active = hit-call score of the fitted dose curve at least 0.9, where 1 is the maximum; inactive = score below 0.9.
One label from this list, please: Yes (active), No (inactive)

Previously resolved entries follow.
>>> group("ClC1=C(Cl)[C@]2(Cl)[C@@H]3[C@@H]4C[C@@H]([C@H]5O[C@@H]45)[C@@H]3[C@@]1(Cl)C2(Cl)Cl")
"No"
>>> group("N#Cc1ccc(N(CC(N)=O)CC(F)(F)F)cc1C(F)(F)F")
"No"
>>> group("CCSC(=O)N(CC)C1CCCCC1")
"No"
>>> group("COS(=O)(=O)OC")
"No"

stdin: Kindly provide the recorded test outcome for the following compound: CCCCCCCCOC(=O)c1ccccc1C(=O)OCCCCCCCC
stdout: No

stdin: What call does the record list for Clc1ccc(C(Cl)(Cl)Cl)cc1 ?
stdout: No

stdin: Hi, do you know how O=C(O)C(F)(F)C(F)(F)C(F)(F)C(F)(F)C(F)(F)F came out in this test?
stdout: No

stdin: Outcome logged for CC1=C2C[C@H]3[C@@H](CC=C4C[C@@H](O)CC[C@@]43C)[C@@H]2CC[C@]12O[C@@H]1C[C@H](C)CN[C@H]1[C@H]2C in this assay:
stdout: No

stdin: Test call, this compound: Cc1cccc([N+](=O)[O-])c1
stdout: No

stdin: Identify the outcome logged in this assay for the compound shown: CC#Cc1cc(C)nc(Nc2ccccc2)n1
stdout: Yes

stdin: Dear colleague, could you share the recorded outcome for CCOCCOC(C)=O when you have a moment?
stdout: No

stdin: Hi, sorry to bother you, what did the test record for Oc1ccc(Cl)cc1Cl ?
stdout: No
